Data provenance: patent US20170088624A1

Target: Full length human CD40 (huCD40) on cells (human, UniProt P25942 21-277)
Sequence (P25942 21-277): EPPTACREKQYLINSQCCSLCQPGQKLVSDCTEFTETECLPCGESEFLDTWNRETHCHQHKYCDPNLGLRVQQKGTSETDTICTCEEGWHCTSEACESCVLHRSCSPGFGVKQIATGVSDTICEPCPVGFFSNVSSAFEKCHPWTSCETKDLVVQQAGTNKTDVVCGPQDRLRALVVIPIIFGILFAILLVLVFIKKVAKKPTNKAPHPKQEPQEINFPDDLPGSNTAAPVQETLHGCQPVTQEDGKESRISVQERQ
Test: cell-based or functional assay
result.type: DC EC50, HLA-DR surface expression, with cross-linker
Could you kindly put the unit after your number?

C40M12 (antibody, human IgG1, lambda, V domains shown, Full-length IgG1/lambda; from OmniRat (OMT)) VH: EVQLVESGGGLVQPGGSLRLSCAASGFTFGSYAMSWVRQAPGKGLEWVSVISDSGGRTYYADSVKGRFTISRDYSKNTLYLQMNSLRAEDTAVYYCAKEGGDYYYYGMDVWGQGTTVTVSS VL: SYELTQPPSVSVSPGQTASIICSGDKLGDKYVCWYQQKPGQSPVVVIYHDNKRPSGIPERFSGSNSGNTATLTISGTQAMDEADYYCQVWDSSTVVFGGGTKLTVLG : 0.301 µg/mL
C40M9 (antibody, human IgG1, lambda, V domains shown) VH: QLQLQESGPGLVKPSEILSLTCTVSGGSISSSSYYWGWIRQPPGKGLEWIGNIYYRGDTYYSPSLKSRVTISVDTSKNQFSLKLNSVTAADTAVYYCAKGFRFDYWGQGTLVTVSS VL: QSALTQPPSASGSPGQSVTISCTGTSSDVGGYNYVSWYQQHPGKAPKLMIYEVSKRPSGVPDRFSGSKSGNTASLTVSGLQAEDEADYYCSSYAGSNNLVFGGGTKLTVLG : 0.0797 µg/mL

Kindly consider the entry below.
Dear colleague, I am looking for the recorded DC EC50, HLA-DR surface expression, with cross-linker of the following binder: C40M18 (antibody, human IgG1, lambda, V domains shown, Full-length IgG1/lambda; from OmniRat (OMT); VH C40H48, VL C40L64) VH: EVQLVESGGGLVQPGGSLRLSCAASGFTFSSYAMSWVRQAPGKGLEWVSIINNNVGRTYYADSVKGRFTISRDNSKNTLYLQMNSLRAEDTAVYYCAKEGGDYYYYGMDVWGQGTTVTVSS VL: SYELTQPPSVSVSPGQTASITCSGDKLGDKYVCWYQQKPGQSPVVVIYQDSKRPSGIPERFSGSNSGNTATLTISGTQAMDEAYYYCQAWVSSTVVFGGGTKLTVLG
0.0105 µg/mL
